# System: giant foxtail
# procedure-details: Test A postemergence
# Assay type: in vivo, Setaria faberii
# assay-setup: 500 g ai/ha, 0 to 100 scale, 0 no effect, 100 complete control
endpoint: Plant response rating, Foxtail, Giant

Completed entries (count: 7):
Fc1cnc(Oc2ccccc2-n2cc(Cl)cn2)nc1	90
FC(F)(F)c1ccn(-c2ccccc2Sc2ncc(Cl)cn2)n1	10
FC(F)(F)c1cnc(Oc2ccccc2-n2cc(C(F)(F)F)cn2)nc1	90
Clc1cnc(Oc2ccccc2-n2cc(Cl)cn2)nc1	90
Cc1nn(-c2ccccc2Oc2ncc(Cl)cn2)cc1Cl [Compound 38]	0
Brc1cnc(Oc2ccccc2-n2cc(Br)c(Br)n2)nc1	0
O=Cc1cccc(Oc2ncc(Cl)cn2)c1-n1cc(Br)cn1	0

Now look at this one.
# query: Plant response rating, Foxtail, Giant of entry Cc1nn(-c2ccccc2Oc2ncc(Cl)cn2)cc1Cl [Compound 39] 0

###

# Test system: barnyardgrass
# procedure-details: Test C flooded paddy test
# Format: in vivo, Echinochloa crus-galli
# assay-setup: Flood, 125 g ai/ha; scale 0 to 100 (0 no effect, 100 complete control), 13 to 15 days
# Source text: At time of treatment, test pots were flooded to 3 cm above the soil surface, treated by application of test compounds directly to the paddy water, and then maintained at that water depth for the duration of the test. Treated plants and controls were maintained in a greenhouse for 13 to 15 days, after which time all species were compared to controls and visually evaluated. […] A dash (-) response means no test result.
endpoint: Plant response rating, Barnyardgrass

Completed entries (count: 2):
Fc1cccc(Oc2ncc(Cl)cn2)c1-n1cc(OCC(F)(F)F)cn1 [Compound 270]	45
FC(F)(F)c1cnn(-c2ccccc2Oc2ncc(Br)cn2)c1 [Compound 18]	10

# query: Plant response rating, Barnyardgrass of entry FC(F)c1cccc(Oc2ncc(Cl)cn2)c1-n1cc(Br)cn1 [Compound 194] 0

# query: Plant response rating, Barnyardgrass of entry C#Cc1cnn(-c2ccccc2Oc2ncc(Cl)cn2)c1 [Compound 188] 0

# query: Plant response rating, Barnyardgrass of entry N#Cc1cnn(-c2c(Oc3ncc(Cl)cn3)cccc2C(F)F)c1 [Compound 236] 0

# query: Plant response rating, Barnyardgrass of entry Cc1ccc(Oc2ncc(Cl)cn2)c(-n2cc(Br)cn2)c1 [Compound 40] 15

# query: Plant response rating, Barnyardgrass of entry CON=Cc1cccc(Oc2ncc(Cl)cn2)c1-n1cc(Br)cn1 [Compound 203] 50

###

# Test system: velvetleaf
# procedure-details: Test A postemergence
# Type: in vivo, Abutilon theophrasti
# assay-setup: 1000 g ai/ha, 0 to 100 scale, 0 no effect, 100 complete control
Form field: Plant response rating, Velvetleaf (one value per entry).
Would you mind answering with just the numeric figure?

Completed entries (count: 4):
Clc1cnc(Oc2cccc(Br)c2-n2cc(Br)cn2)nc1	100
N#Cc1cn(-c2c(Br)cccc2Oc2ncc(Cl)cn2)nn1	100
CC(=NO)c1cn(-c2c(Br)cccc2Oc2ncc(Cl)cn2)nn1	100
Oc1cccc(Oc2ncc(Cl)cn2)c1-n1cc(Cl)cn1	0

Now look at this one.
# query: Plant response rating, Velvetleaf of entry CC(=O)Oc1cccc(Oc2ncc(Cl)cn2)c1-n1cc(Br)cn1 70

###

# Tested on: morningglory
# procedure-details: Test C postemergence
# Type: in vivo, Ipomoea coccinea
# assay-setup: 125 g ai/ha, postemergence
endpoint: Plant response rating (0 to 100), Morningglory
Would you mind answering with just the numeric figure?

Completed entries (count: 4):
CCOc1cn(-c2c(Br)cccc2Oc2ncc(Cl)cn2)nn1 [Compound 84]	85
N#Cc1cccc(Oc2ncc(F)cn2)c1-n1cc(I)cn1 [Compound 86]	85
Clc1cnc(Oc2cccc(Br)c2-n2cc(Br)cn2)nc1 [Compound 65]	95
FCc1cccc(Oc2ncc(Cl)cn2)c1-n1cc(Br)cn1 [Compound 83]	85

Now look at this one.
# query: Plant response rating (0 to 100), Morningglory of entry CCOc1cnn(-c2c(C#N)cccc2Oc2ncc(Cl)cn2)c1 [Compound 92] 85

###

Form field: Plant response rating, Wheat (one value per entry).
# System: wheat
# procedure-details: Test A postemergence
# Assay type: in vivo, Triticum aestivum
# assay-setup: 125 g ai/ha, 0 to 100 scale, 0 no effect, 100 complete control
Would you mind answering with just the numeric figure?

Clc1cnc(Oc2cccc(-c3cccnc3)c2-n2cc(Br)cn2)nc1	0
N#Cc1cccc(Oc2ncc(Cl)cn2)c1-n1cc(-n2ccc(C(F)(F)F)n2)cn1	20
Clc1cnc(Oc2ccccc2-n2cccc2)nc1	0

Now look at this one.
# query: Plant response rating, Wheat of entry Fc1cnc(Oc2ccccc2-n2cc(OCC(F)(F)F)cn2)nc1 10

###

# System: pigweed
# procedure-details: Test A postemergence
# Assay type: in vivo, Amaranthus retroflexus
# assay-setup: 125 g ai/ha, 0 to 100 scale, 0 no effect, 100 complete control
endpoint: Plant response rating, Pigweed
Would you mind answering with just the numeric figure?

Completed entries (count: 5):
Cc1cc(C(F)F)nn1-c1ccccc1Oc1ncc(Cl)cn1 [Compound 267]	0
N#Cc1cccc(Oc2ncc(Cl)cn2)c1-n1ccnc1 [Compound 261]	60
FCc1cccc(Oc2ncc(Cl)cn2)c1-n1cc(Cl)cn1 [Compound 250]	90
CCOC(=O)c1cnn(-c2c(C#N)cccc2Oc2ncc(Cl)cn2)c1 [Compound 301]	0
Clc1cnc(Oc2ccccc2-n2cccc2)nc1 [Compound 269]	0

# query: Plant response rating, Pigweed of entry Fc1cccc(Oc2ncc(Cl)cn2)c1-n1cc(OCC(F)(F)F)cn1 [Compound 270] 100

###

Form field: Foxtail, Giant plant response rating (one value per entry).
# System: giant foxtail
# procedure-details: Test C postemergence
# Type: in vivo, Setaria faberii
# assay-setup: 16 g ai/ha, postemergence; visual rating, scale 0 to 100 (0 no effect, 100 complete control), 13 to 15 days
Would you mind answering with just the numeric figure?

CCOc1cnn(-c2c(C#N)cccc2Oc2ncc(F)cn2)c1 [Compound 89]	5

# query: Foxtail, Giant plant response rating of entry Clc1cnc(Oc2cccc(Br)c2-n2cc(Br)cn2)nc1 [Compound 65] 5

# query: Foxtail, Giant plant response rating of entry CCOc1cn(-c2c(Br)cccc2Oc2ncc(Cl)cn2)nn1 [Compound 84] 40

# query: Foxtail, Giant plant response rating of entry N#Cc1cccc(Oc2ncc(Br)cn2)c1-n1cc(I)cn1 [Compound 88] 20

# query: Foxtail, Giant plant response rating of entry N#Cc1cnn(-c2c(C#N)cccc2Oc2ncc(F)cn2)c1 [Compound 111] 20

###

# Test system: arrowleaf sida
# procedure-details: Test E preemergence
# Format: in vivo, Sida rhombifolia
# assay-setup: preemergence; 125 g ai/ha; scale 0 to 100, 0 no effect, 100 complete control
Form field: Plant response rating, Arrowleaf Sida (one value per entry).
Would you mind answering with just the numeric figure?

Completed entries (count: 6):
N#Cc1cccc(Oc2ncc(F)cn2)c1-n1cc(I)cn1 [Compound 86]	100
FC(F)(F)COc1cnn(-c2ccccc2Oc2ncc(Cl)cn2)c1 [Compound 138]	100
N#Cc1cccc(Oc2ncc(Cl)cn2)c1-n1cc(C(F)(F)F)cn1 [Compound 58]	100
FC(F)(F)c1cnn(-c2ccccc2Oc2ncc(Cl)cn2)c1 [Compound 16]	95
FCc1cccc(Oc2ncc(Cl)cn2)c1-n1cc(Cl)cn1 [Compound 250]	100
FC(F)(F)c1cnn(-c2c(Cl)cccc2Oc2ncc(Cl)cn2)c1 [Compound 167]	100

# query: Plant response rating, Arrowleaf Sida of entry FC(F)(F)c1cnn(-c2ccccc2Oc2ncc(Br)cn2)c1 [Compound 18] 85

# query: Plant response rating, Arrowleaf Sida of entry N#Cc1cnn(-c2c(CF)cccc2Oc2ncc(F)cn2)c1 [Compound 151] 100

###

# System: wheat
# procedure-details: Test A preemergence
# Assay type: in vivo, Triticum aestivum
# assay-setup: 125 g ai/ha
endpoint: Wheat plant response rating (0 to 100 scale)

FC(F)c1cccc(Oc2ncc(Br)cn2)c1-n1cc(Br)cn1	0
FC(F)c1cccc(Oc2ncc(Cl)cn2)c1-n1cc(Br)cn1	20
N#Cc1cccc(Oc2ncc(Br)cn2)c1-n1cccn1	0
C=C(C)c1cccc(Oc2ncc(Cl)cn2)c1-n1cc(Br)cn1	0

Now look at this one.
# query: Wheat plant response rating (0 to 100 scale) of entry N#Cc1cccc(Oc2ncc(Cl)cn2)c1-n1cc([N+](=O)[O-])cn1 0

###

# System: ragweed
# procedure-details: Test A postemergence
# Format: in vivo, Ambrosia elatior
# assay-setup: 125 g ai/ha, 0 to 100 scale, 0 no effect, 100 complete control
Form field: Plant response rating, Ragweed (one value per entry).
Would you mind answering with just the numeric figure?

Completed entries (count: 5):
N#Cc1cnn(-c2c(CF)cccc2Oc2ncc(Cl)cn2)c1 [Compound 242]	50
N#Cc1cccc(Oc2ncc(Cl)cn2)c1-n1cnc(C(F)(F)F)c1 [Compound 252]	70
CC(C)Oc1cnn(-c2c(C#N)cccc2Oc2ncc(Br)cn2)c1 [Compound 254]	20
Clc1cnc(Oc2ccccc2-n2cccc2)nc1 [Compound 269]	0
N#Cc1cccc(Oc2ncc(Cl)cn2)c1-n1ccnc1 [Compound 261]	30

Now look at this one.
Recorded Plant response rating, Ragweed for Cc1cc(C)n(-c2ccccc2Oc2ncc(Cl)cn2)n1 [Compound 264] with ragweed, please? 0

All values here come from patent US9695155B2.
